Assay target: B2 bradykinin receptor (Homo sapiens, UniProt P30411); also: assay procedure not described here
Sequence (P30411 whole entry): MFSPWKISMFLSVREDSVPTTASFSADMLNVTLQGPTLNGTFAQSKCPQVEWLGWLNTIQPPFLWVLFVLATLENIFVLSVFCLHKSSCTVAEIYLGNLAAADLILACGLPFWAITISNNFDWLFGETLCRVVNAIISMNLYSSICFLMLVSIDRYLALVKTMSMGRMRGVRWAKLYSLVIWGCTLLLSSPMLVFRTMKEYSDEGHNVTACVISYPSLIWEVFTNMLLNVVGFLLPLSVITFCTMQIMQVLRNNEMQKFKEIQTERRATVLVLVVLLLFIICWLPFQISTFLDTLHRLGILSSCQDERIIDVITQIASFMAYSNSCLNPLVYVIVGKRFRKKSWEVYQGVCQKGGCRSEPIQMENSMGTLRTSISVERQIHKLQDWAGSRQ
The entries below come with measured AC50 values attached.

These recorded examples may help you get a feel for the data.
- C[C@]12C=CC(=O)N[C@@H]1CC[C@@H]1[C@@H]2CC[C@]2(C)[C@@H](C(=O)Nc3cc(C(F)(F)F)ccc3C(F)(F)F)CC[C@@H]12 [DUTASTERIDE]: > 10 µM
- CCC(=O)O[C@]1(C(=O)SCF)[C@H](C)C[C@H]2[C@@H]3C[C@H](F)C4=CC(=O)C=C[C@]4(C)[C@@]3(F)[C@@H](O)C[C@@]21C [FLUTICASONE PROPIONATE]: > 30 µM
- C[C@]12CC[C@@H]3c4ccc(O)cc4C[C@@H](CCCCCCCCC[S+]([O-])CCCC(F)(F)C(F)(F)F)[C@H]3[C@@H]1CC[C@@H]2O (some centres not stated): > 30 µM
- CCCC(CCC)C(=O)O: > 30 µM

State its AC50 for this compound: CCCC(CCC)C(N)=O [VALPROMIDE]
> 30 µM

Supply AC50 value. Item: CC1(C)S[C@@H]2[C@H](NC(=O)[C@H](N)c3ccccc3)C(=O)N2[C@H]1C(=O)OCOC(=O)[C@@H]1N2C(=O)C[C@H]2S(=O)(=O)C1(C)C
> 30 µM

Answer with reported AC50 of COc1ccc(-c2noc(CC(=O)O)c2-c2ccc(OC)cc2)cc1
> 30 µM
